Reported values of Inhibition for individual entries
- Tested on: HepG2
- Method Notes: GSK_TCMDC: Percent inhibition of human HepG2 cell line. Test compounds present at 10uM.
- Format: functional

{"Molecule": "O=C(CCCCCNC(=O)c1ccc(O)c(-c2ccc(Cl)c(Cl)c2)c1)NCCc1ccc(Cl)c(Cl)c1", "Inhibition": "57%"}
{"Molecule": "COc1cc(F)c2ncc(Cl)c(CCN3CCC(NCc4ccc5c(n4)NC(=O)CO5)CC3)c2c1.Cl", "Inhibition": "20%"}
{"Molecule": "Cn1nc(-c2ccc(NC(=O)Nc3cc(C(F)(F)F)cc(C(F)(F)F)c3)c(F)c2)c2cnc(NCCN3CCOCC3)nc21.O=C(O)C(F)(F)F", "Inhibition": "43%"}
{"Molecule": "O=C(Nc1cccc(-c2ccc(-c3nc4cc(C(F)(F)F)ccc4[nH]3)cc2)c1)c1cccnc1", "Inhibition": "73%"}
{"Molecule": "Cc1cc(-c2cc3nc4c(c(O)n3n2)CCCC4)c(C)o1", "Inhibition": "4%"}
{"Molecule": "O=C(Nc1cccc(CN2CCN(Cc3ccc(O)cc3)CC2)c1)c1ccc(Cl)c(Cl)c1.O=C(O)C(F)(F)F", "Inhibition": "30%"}
{"Molecule": "COc1ccc(CN2CCC(CN3CC4(OC3=O)c3ccccc3-c3ccccc34)C2)c(O)c1 (configuration not stated)", "Inhibition": "22%"}
{"Molecule": "CCN(CCCN1CCCCC1)c1cc(C)nc(Nc2ccc(C)c(C)c2)n1.O=C(O)C(F)(F)F", "Inhibition": "30%"}
{"Molecule": "COc1ccc(OC(C)CNC(=O)c2cc([N+](=O)[O-])ccc2-c2ccc(OC)cc2)cc1 (configuration not stated)", "Inhibition": "18%"}
{"Molecule": "CCc1c[nH]c2c(N(c3ccccc3)S(C)(=O)=O)cc(C(=O)N[C@@H](Cc3ccccc3)[C@H](O)CNC(C)(C)CCCC(C)C)cc12.O=CO", "Inhibition": "99%"}
{"Molecule": "O=C(NCCCCCN1CCC(c2c[nH]c3ccccc23)CC1)c1ccc(-c2ccccc2)nc1", "Inhibition": "43%"}
{"Molecule": "Cc1nc(-c2nc(NCCc3ccncc3)ncc2-c2ccsc2)sc1C", "Inhibition": "10%"}
